# credit: ChEMBL document CHEMBL5723379

target: Peroxisome proliferator-activated receptor delta (Homo sapiens, UniProt Q03181); assay: Affinity On-target Cellular interaction: (Reporter gene assay (HEK293T cells)) EUB0001483aCl PPARD; assay type: functional, cell-based, HEK-293T; set-up: mode of action Antagonist, recommended concentration 10 uM
Sequence (Q03181 whole entry): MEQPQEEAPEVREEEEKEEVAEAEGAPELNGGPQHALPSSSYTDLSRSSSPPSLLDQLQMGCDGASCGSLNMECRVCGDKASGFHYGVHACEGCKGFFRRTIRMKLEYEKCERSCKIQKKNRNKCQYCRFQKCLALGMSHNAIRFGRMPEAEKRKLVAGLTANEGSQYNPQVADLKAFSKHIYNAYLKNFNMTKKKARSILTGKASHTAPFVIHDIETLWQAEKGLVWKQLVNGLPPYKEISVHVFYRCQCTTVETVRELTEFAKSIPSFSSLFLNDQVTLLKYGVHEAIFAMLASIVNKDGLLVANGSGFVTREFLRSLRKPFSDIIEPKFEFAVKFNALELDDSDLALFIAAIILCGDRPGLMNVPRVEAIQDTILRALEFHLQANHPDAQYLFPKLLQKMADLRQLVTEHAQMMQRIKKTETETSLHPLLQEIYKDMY
property: IC50 (nM)
Express it in nM; write the number only.

Return reported IC50; argument: `CN1CCN(c2ccc(/C=C(\C#N)c3ccccc3Br)cc2)CC1`
1800

----------
Target: Sodium/glucose cotransporter 2 (Homo sapiens, UniProt P31639)
Sequence (P31639 whole entry): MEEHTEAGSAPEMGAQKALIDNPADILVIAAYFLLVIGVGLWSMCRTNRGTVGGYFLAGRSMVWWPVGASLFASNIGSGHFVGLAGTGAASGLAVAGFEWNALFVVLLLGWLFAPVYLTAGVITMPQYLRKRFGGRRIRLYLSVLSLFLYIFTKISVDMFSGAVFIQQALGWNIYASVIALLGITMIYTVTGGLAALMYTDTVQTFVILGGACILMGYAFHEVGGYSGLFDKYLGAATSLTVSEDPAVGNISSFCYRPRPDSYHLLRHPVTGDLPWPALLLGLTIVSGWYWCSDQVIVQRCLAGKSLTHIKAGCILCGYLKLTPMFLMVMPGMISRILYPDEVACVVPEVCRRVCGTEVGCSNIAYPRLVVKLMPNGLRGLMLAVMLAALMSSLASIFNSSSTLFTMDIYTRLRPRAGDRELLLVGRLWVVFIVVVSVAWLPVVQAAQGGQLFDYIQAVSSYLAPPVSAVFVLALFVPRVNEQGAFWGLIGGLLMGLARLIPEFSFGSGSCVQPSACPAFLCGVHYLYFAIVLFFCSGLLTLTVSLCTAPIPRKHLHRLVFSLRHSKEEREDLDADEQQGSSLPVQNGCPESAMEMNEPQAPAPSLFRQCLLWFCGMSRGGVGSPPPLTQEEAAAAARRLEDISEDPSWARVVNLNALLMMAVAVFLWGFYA
Assay: Affinity On-target Cellular interaction: (AMG uptake assay in presence of 25% human plasma, 293.ETN cells) EUB0002515a SLC5A2
property: IC50 (nM)
The figure you give is taken to be in nM; do not add the unit.

Item under review: OC[C@H]1O[C@@H](c2ccc(Cl)c(Cc3ccc(OCCOC4CC4)cc3)c2)[C@H](O)[C@@H](O)[C@@H]1O [BEXAGLIFLOZIN] . Reported IC50?
2
